Sequence of the target: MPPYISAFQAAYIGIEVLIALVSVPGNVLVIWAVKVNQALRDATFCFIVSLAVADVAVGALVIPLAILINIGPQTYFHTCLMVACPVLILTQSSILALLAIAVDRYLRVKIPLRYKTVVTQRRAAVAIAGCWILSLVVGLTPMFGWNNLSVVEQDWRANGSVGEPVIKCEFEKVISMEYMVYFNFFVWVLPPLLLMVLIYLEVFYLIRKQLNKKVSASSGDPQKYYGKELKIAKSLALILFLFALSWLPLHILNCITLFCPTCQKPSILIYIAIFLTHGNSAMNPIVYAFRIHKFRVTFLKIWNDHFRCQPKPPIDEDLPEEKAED
pKi: −log10 of the molar value.
property name: pKi

C1=Nc2nc[nH]c2C2=N[C@@H](Cc3ccccc3)CN12 ... 3.70
OC[C@H]1O[C@@H](n2cnc3c2N=CN2C[C@@H](Cc4ccccc4)N=C32)[C@H](O)[C@@H]1O ... 4.19

A. OC[C@H]1O[C@@H](n2cnc3c2N=CN2C[C@H](Cc4ccccc4)N=C32)[C@H](O)[C@@H]1O
B. C1=Nc2c(ncn2-c2ccccc2)C2=N[C@@H](Cc3ccccc3)CN12
C. CCCOC1=Nc2c(cnn2-c2ccccc2)C2=N[C@@H](Cc3ccccc3)CN12
D. CCCOC1=Nc2c(cnn2-c2ccccc2)C2=N[C@H](C)[C@@H](c3ccccc3)N12
Incoming: Please rank these molecules by pKi in descending order. Please reply with the labels ordered as requested. Many thanks.
Outgoing: C, A, D, B
(C: 5.57, A: 5.35, D: 4.92, B: 4.35)
